Entries and their measured n follow.
Molecular target: rAtACBP6 (Arabidopsis thaliana, UniProt P57752)
Construct: made in house; host or cells: Escherichia coli
Sequence (P57752 1-92): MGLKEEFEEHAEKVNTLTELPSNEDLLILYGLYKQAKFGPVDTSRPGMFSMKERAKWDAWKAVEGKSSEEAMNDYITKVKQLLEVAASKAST
Experiment: ITC of acyl-CoA esters binding to rAtACBP6
Conditions: ITC, 30°C, 10 mM sodium phosphate buffer pH 7.0; mean of three experiments±S.D.; stoichiometry of ligand-to-protein binding
Write no unit; give the number alone.

Param readout = n; param system = rAtACBP6 (Arabidopsis thaliana, UniProt P57752); param query = `CCCCCCCCCCCCCC(=O)SCCNC(=O)CCNC(=O)[C@H](O)C(C)(C)COP(=O)(O)OP(=O)(O)OC[C@H]1O[C@@H](n2cnc3c(N)ncnc32)[C@H](O)[C@@H]1OP(=O)(O)O` ; response: value 1

Param readout = n; param system = rAtACBP6 (Arabidopsis thaliana, UniProt P57752); param query = `CCCCC/C=C\C/C=C\CCCCCCCC(=O)SCCNC(=O)CCNC(=O)[C@H](O)C(C)(C)COP(=O)(O)OP(=O)(O)OC[C@H]1O[C@@H](n2cnc3c(N)ncnc32)[C@H](O)[C@@H]1OP(=O)(O)O` ; response: value 1.1

Param readout = n; param system = rAtACBP6 (Arabidopsis thaliana, UniProt P57752); param query = `CC/C=C\C/C=C\C/C=C\CCCCCCCC(=O)SCCNC(=O)CCNC(=O)[C@H](O)C(C)(C)COP(=O)(O)OP(=O)(O)OC[C@H]1O[C@@H](n2cnc3c(N)ncnc32)[C@H](O)[C@@H]1OP(=O)(O)O` ; response: value 1.1

Param readout = n; param system = rAtACBP6 (Arabidopsis thaliana, UniProt P57752); param query = `CCCCCCCCCCCCCCCC(=O)SCCNC(=O)CCNC(=O)[C@H](O)C(C)(C)COP(=O)(O)OP(=O)(O)OC[C@H]1O[C@@H](n2cnc3c(N)ncnc32)[C@H](O)[C@@H]1OP(=O)(O)O` ; response: value 1

Param readout = n; param system = rAtACBP6 (Arabidopsis thaliana, UniProt P57752); param query = `CCCCCCCCCCCCCCCCCC(=O)SCCNC(=O)CCNC(=O)[C@H](O)C(C)(C)COP(=O)(O)OP(=O)(O)OC[C@H]1O[C@@H](n2cnc3c(N)ncnc32)[C@H](O)[C@@H]1OP(=O)(O)O` ; response: value 1

Param readout = n; param system = rAtACBP6 (Arabidopsis thaliana, UniProt P57752); param query = `CCCCCCCC/C=C\CCCCCCCC(=O)SCCNC(=O)CCNC(=O)[C@H](O)C(C)(C)COP(=O)(O)OP(=O)(O)OC[C@H]1O[C@@H](n2cnc3c(N)ncnc32)[C@H](O)[C@@H]1OP(=O)(O)O` ; response: value 1.9

====

Biological target: rAtACBP6 (Arabidopsis thaliana, UniProt P57752)
Construct: made in house; host or cells: Escherichia coli
Experiment: ITC of acyl-CoA esters binding to rAtACBP6
Conditions: ITC, 30°C, 10 mM sodium phosphate buffer pH 7.0
Entries and their measured ΔS follow.

compound: CCCCC/C=C\C/C=C\CCCCCCCC(=O)SCCNC(=O)CCNC(=O)[C@H](O)C(C)(C)COP(=O)(O)OP(=O)(O)OC[C@H]1O[C@@H](n2cnc3c(N)ncnc32)[C@H](O)[C@@H]1OP(=O)(O)O [18:2, linoleoyl-CoA]
experimental.value: -6.7 cal/(mol·K)
//
compound: CCCCCCCCCCCCCCCC(=O)SCCNC(=O)CCNC(=O)[C@H](O)C(C)(C)COP(=O)(O)OP(=O)(O)OC[C@H]1O[C@@H](n2cnc3c(N)ncnc32)[C@H](O)[C@@H]1OP(=O)(O)O [16:0, palmitoyl-CoA]
experimental.value: -11.5 cal/(mol·K)

# evaluate next
Param readout = ΔS; param system = rAtACBP6 (Arabidopsis thaliana, UniProt P57752); param query = CC/C=C\C/C=C\C/C=C\CCCCCCCC(=O)SCCNC(=O)CCNC(=O)[C@H](O)C(C)(C)COP(=O)(O)OP(=O)(O)OC[C@H]1O[C@@H](n2cnc3c(N)ncnc32)[C@H](O)[C@@H]1OP(=O)(O)O [18:3, linolenoyl-CoA] ; response: value -7.7 cal/(mol·K)

====

Molecular target: UniProtKB Q9MA55
Test: ITC of acyl-CoA esters binding to rAtACBP4
Conditions: ITC, 30°C, 10 mM sodium phosphate buffer pH 7.0; mean of three±S.D.; in kcal/mol
Returns one of rule met or rule not met; rule met when ΔG is >= -6.

Sample answers from the record:
structure.notation: CC/C=C\C/C=C\C/C=C\CCCCCCCC(=O)SCCNC(=O)CCNC(=O)[C@H](O)C(C)(C)COP(=O)(O)OP(=O)(O)OC[C@H]1O[C@@H](n2cnc3c(N)ncnc32)[C@H](O)[C@@H]1OP(=O)(O)O
class.assignment: rule met
//
structure.notation: CCCCCCCCCCCCCC(=O)SCCNC(=O)CCNC(=O)[C@H](O)C(C)(C)COP(=O)(O)OP(=O)(O)OC[C@H]1O[C@@H](n2cnc3c(N)ncnc32)[C@H](O)[C@@H]1OP(=O)(O)O
class.assignment: rule met
//
structure.notation: CCCCCCCCCCCCCCCCCC(=O)SCCNC(=O)CCNC(=O)[C@H](O)C(C)(C)COP(=O)(O)OP(=O)(O)OC[C@H]1O[C@@H](n2cnc3c(N)ncnc32)[C@H](O)[C@@H]1OP(=O)(O)O
class.assignment: rule not met

Hello, I need to know if `CCCCC/C=C\C/C=C\CCCCCCCC(=O)SCCNC(=O)CCNC(=O)[C@H](O)C(C)(C)COP(=O)(O)OP(=O)(O)OC[C@H]1O[C@@H](n2cnc3c(N)ncnc32)[C@H](O)[C@@H]1OP(=O)(O)O` has measured ΔG not below -6. Thanks! rule met

Hello, I need to know if `CCCCCCCC/C=C\CCCCCCCC(=O)SCCNC(=O)CCNC(=O)[C@H](O)C(C)(C)COP(=O)(O)OP(=O)(O)OC[C@H]1O[C@@H](n2cnc3c(N)ncnc32)[C@H](O)[C@@H]1OP(=O)(O)O` has measured ΔG not below -6. Thanks! rule met

====

Molecular target: rAtACBP4 (Arabidopsis thaliana)
Experiment: ITC of acyl-CoA esters binding to rAtACBP4
Details: ITC, 30°C, 10 mM sodium phosphate buffer pH 7.0; mean of three experiments±S.D.; stoichiometry of ligand-to-protein binding
Entries and their measured n follow.
Write no unit; give the number alone.

molecule: CCCCCCCCCCCCCCCC(=O)SCCNC(=O)CCNC(=O)[C@H](O)C(C)(C)COP(=O)(O)OP(=O)(O)OC[C@H]1O[C@@H](n2cnc3c(N)ncnc32)[C@H](O)[C@@H]1OP(=O)(O)O [16:0, palmitoyl-CoA]
experimental.value: 1

# evaluate next
Param readout = n; param system = rAtACBP4 (Arabidopsis thaliana); param query = CCCCC/C=C\C/C=C\CCCCCCCC(=O)SCCNC(=O)CCNC(=O)[C@H](O)C(C)(C)COP(=O)(O)OP(=O)(O)OC[C@H]1O[C@@H](n2cnc3c(N)ncnc32)[C@H](O)[C@@H]1OP(=O)(O)O [18:2, linoleoyl-CoA] ; response: value 1

====

Target: rAtACBP4 (Arabidopsis thaliana, UniProt Q9MA55)
Sequence (Q9MA55 whole entry): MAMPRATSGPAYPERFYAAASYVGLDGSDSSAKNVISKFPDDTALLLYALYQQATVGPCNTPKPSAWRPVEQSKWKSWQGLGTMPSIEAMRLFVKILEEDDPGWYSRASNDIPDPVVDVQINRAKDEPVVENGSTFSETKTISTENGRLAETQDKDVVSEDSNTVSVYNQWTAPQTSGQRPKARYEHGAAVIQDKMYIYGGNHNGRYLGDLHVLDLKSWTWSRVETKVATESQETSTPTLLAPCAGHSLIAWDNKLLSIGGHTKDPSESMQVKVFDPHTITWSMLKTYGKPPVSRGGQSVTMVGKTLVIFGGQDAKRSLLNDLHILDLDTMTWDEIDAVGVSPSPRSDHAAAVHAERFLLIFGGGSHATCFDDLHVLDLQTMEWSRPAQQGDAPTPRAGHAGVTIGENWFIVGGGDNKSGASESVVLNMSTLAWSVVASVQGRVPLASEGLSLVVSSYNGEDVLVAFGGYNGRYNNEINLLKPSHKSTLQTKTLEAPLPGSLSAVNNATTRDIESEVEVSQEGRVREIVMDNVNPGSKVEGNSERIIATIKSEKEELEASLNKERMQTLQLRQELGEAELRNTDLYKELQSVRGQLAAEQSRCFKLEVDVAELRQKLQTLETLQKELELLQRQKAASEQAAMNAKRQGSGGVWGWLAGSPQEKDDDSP
Experiment: ITC of acyl-CoA esters binding to rAtACBP4
Conditions: ITC, 30°C, 10 mM sodium phosphate buffer pH 7.0
Entries and their measured ΔS follow.

Guide cases for ΔS, answers given:
structure.notation: CCCCCCCCCCCCCCCCCC(=O)SCCNC(=O)CCNC(=O)[C@H](O)C(C)(C)COP(=O)(O)OP(=O)(O)OC[C@H]1O[C@@H](n2cnc3c(N)ncnc32)[C@H](O)[C@@H]1OP(=O)(O)O
measured.on: rAtACBP4 (Arabidopsis thaliana, UniProt Q9MA55)
ΔS: -0.6 cal/(mol·K)
--
structure.notation: CCCCC/C=C\C/C=C\CCCCCCCC(=O)SCCNC(=O)CCNC(=O)[C@H](O)C(C)(C)COP(=O)(O)OP(=O)(O)OC[C@H]1O[C@@H](n2cnc3c(N)ncnc32)[C@H](O)[C@@H]1OP(=O)(O)O
measured.on: rAtACBP4 (Arabidopsis thaliana, UniProt Q9MA55)
ΔS: -224 cal/(mol·K)
--
structure.notation: CC/C=C\C/C=C\C/C=C\CCCCCCCC(=O)SCCNC(=O)CCNC(=O)[C@H](O)C(C)(C)COP(=O)(O)OP(=O)(O)OC[C@H]1O[C@@H](n2cnc3c(N)ncnc32)[C@H](O)[C@@H]1OP(=O)(O)O
measured.on: rAtACBP4 (Arabidopsis thaliana, UniProt Q9MA55)
ΔS: -300 cal/(mol·K)
--
structure.notation: CCCCCCCC/C=C\CCCCCCCC(=O)SCCNC(=O)CCNC(=O)[C@H](O)C(C)(C)COP(=O)(O)OP(=O)(O)OC[C@H]1O[C@@H](n2cnc3c(N)ncnc32)[C@H](O)[C@@H]1OP(=O)(O)O
measured.on: rAtACBP4 (Arabidopsis thaliana, UniProt Q9MA55)
ΔS: -4.3 cal/(mol·K)
--
structure.notation: CCCCCCCCCCCCCCCC(=O)SCCNC(=O)CCNC(=O)[C@H](O)C(C)(C)COP(=O)(O)OP(=O)(O)OC[C@H]1O[C@@H](n2cnc3c(N)ncnc32)[C@H](O)[C@@H]1OP(=O)(O)O
measured.on: rAtACBP4 (Arabidopsis thaliana, UniProt Q9MA55)
ΔS: -236 cal/(mol·K)

Any idea what ΔS was measured for `CCCCCCCCCCCCCC(=O)SCCNC(=O)CCNC(=O)[C@H](O)C(C)(C)COP(=O)(O)OP(=O)(O)OC[C@H]1O[C@@H](n2cnc3c(N)ncnc32)[C@H](O)[C@@H]1OP(=O)(O)O` ? -158 cal/(mol·K)
